target: neurotensin receptors (HT-29 cells) (Homo sapiens, UniProt P30989); format: cell-based
Sequence (P30989 whole entry, looked up): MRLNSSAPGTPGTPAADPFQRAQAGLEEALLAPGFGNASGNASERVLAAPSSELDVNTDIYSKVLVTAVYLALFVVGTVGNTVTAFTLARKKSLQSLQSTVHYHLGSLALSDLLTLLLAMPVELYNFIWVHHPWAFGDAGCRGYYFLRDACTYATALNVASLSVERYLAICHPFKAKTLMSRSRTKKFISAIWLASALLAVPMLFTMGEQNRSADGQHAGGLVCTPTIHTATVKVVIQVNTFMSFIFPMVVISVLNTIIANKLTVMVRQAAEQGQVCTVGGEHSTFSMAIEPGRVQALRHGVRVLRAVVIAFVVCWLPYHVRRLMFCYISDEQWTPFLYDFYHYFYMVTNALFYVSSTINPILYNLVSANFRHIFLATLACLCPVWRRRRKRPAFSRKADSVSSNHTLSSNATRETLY

[
  {
    "Compound": "CC[C@H](C)[C@H](NC(=O)[C@H](Cc1ccc(O)cc1)NC(=O)[C@@H]1CCCN1C(=O)[C@H](CCCNC(=N)N)NC(=O)[C@H](CCCNC(=N)N)NC(=O)[C@@H]1CCCN1C(=O)[C@H](CCCCN)NC(=O)[C@H](CC(N)=O)NC(=O)[C@H](C)NC(=O)[C@H](Cc1ccc(O)cc1)NC(=O)[C@H](CC(C)C)NC(=O)[C@@H]1CCC(=O)N1)C(=O)N[C@@H](CC(C)C)C(=O)O [[A4] NT]",
    "DC50": "11.7 nM"
  }
]
